System: MDA-MB-468
test_details: SRB cell proliferation assay, MDA-MB-468
Assay type: cell-based
assay_setup: Homo sapiens; MDA-MB-468 (breast); compound 1 tested in racemic mixture; read-out: IC50
pIC50: −log10 of the molar value.
measurement_name: pIC50

For the record CC[C@@H]1C(=O)N(C)c2cnc(Nc3ccc(C(=O)N[C@H]4CC[C@H](N5CCN(CC6CC6)CC5)CC4)cc3OC)nc2N1N(C)C [Compound 1] , what value of pIC50 is listed for MDA-MB-468?
< 6.00

---

System: PC-3
test_details: SRB cell proliferation assay, PC-3
Format: cell-based
assay_setup: Homo sapiens; PC-3 (prostate); compound 1 tested in racemic mixture
Consider the following compounds; for each one, report its IC50.

Find the recorded IC50 belonging to CC[C@@H]1C(=O)N(C)c2cnc(Nc3ccc(C(=O)NC4CCN(C)CC4)cc3OC)nc2N1C1CCCC1 [BI 2536, reference compound] and report it.
< 1000 nM

Suppose we examine the compound CC[C@@H]1C(=O)N(C)c2cnc(Nc3ccc(C(=O)N[C@H]4CC[C@H](N5CCN(CC6CC6)CC5)CC4)cc3OC)nc2N1N(C)C [Compound 1] ; what IC50 value has been reported?
< 1000 nM

---

Test system: A-431
test_details: SRB cell proliferation assay, A-431
Assay type: cell-based
assay_setup: Homo sapiens; A-431 (skin); compound 1 tested in racemic mixture
pIC50: −log10 of the molar value.
I'd be grateful if you could share measured pIC50 for these entries.

Look up pIC50: CC[C@@H]1C(=O)N(C)c2cnc(Nc3ccc(C(=O)N[C@H]4CC[C@H](N5CCN(CC6CC6)CC5)CC4)cc3OC)nc2N1N(C)C [Compound 1]
> 6.00

Need pIC50 of CC[C@@H]1C(=O)N(C)c2cnc(Nc3ccc(C(=O)NC4CCN(C)CC4)cc3OC)nc2N1C1CCCC1 [BI 2536, reference compound] , thanks.
> 6.00
